Where these numbers come from: ChEMBL document CHEMBL4689842

Listed below: Total Cell Count values for each entry.
System: Fibroblast
Test: Multiplex assay against human fibroblast
Assay type: toxicity, cell-based
Details: 24 h, 1 µM, compound concentration 1 uM, replicate 2
Measured Quantity: Total Cell Count

>>> value_observed("CCOC(=O)Nc1cc(-c2ccc(C)c(NS(C)(=O)=O)c2)nn2c(C)nnc12")
66
>>> value_observed("C=CC(=O)Nc1cccc(Oc2nc(Nc3ccc(N4CCN(C)CC4)cc3OC)ncc2Cl)c1")
77
>>> value_observed("COc1cc(Nc2nccc(-c3cnn4nc(OC)ccc34)n2)cc(C(F)(F)F)c1")
43
>>> value_observed("C=CC(=O)Nc1ccc2[nH]c(=O)n(C3CCN(Cc4ccc(-c5nc6cc[nH]c(=O)c6cc5-c5ccccc5)cc4)CC3)c2c1")
68

----------
System: U2OS
Assay: Multiplex assay against U2OS
Format: toxicity, cell-based
Conditions: human, 12 h, 10 µM, compound concentration 10 uM, replicate 1
Grouping rule (Population Apoptotic (%)): small value (below 40%), mid value (40% to below 50%), large value (50% or more)

>>> label_class("C=CC(=O)Nc1cccc(Oc2nc(Nc3ccc(N4CCN(C)CC4)cc3OC)ncc2Cl)c1")
"large value"
>>> label_class("O=c1cc(N2CCOCC2)oc2c(-c3cccc4c3sc3ccccc34)cccc12")
"large value"
>>> label_class("CCc1nn(CCCN2CCN(c3cccc(Cl)c3)CC2)c(=O)n1CCOc1ccccc1.Cl [NEFAZODONE HYDROCHLORIDE]")
"large value"
>>> label_class("CNC(=O)Nc1ccc2c(c1)[C@@]1(CC2)OC(=O)N(CC(=O)N(Cc2ccc(F)cc2)[C@@H](C)C(F)(F)F)C1=O")
"small value"
>>> label_class("C=CC(=O)Nc1cccc(Sc2nc(Nc3ccc(N4CCN(C)CC4)cc3)ncc2Cl)c1")
"small value"
>>> label_class("CC(C)CC(=O)Nc1[nH]nc2c1CN(C(=O)C1CCN(C)CC1)C2(C)C")
"large value"
>>> label_class("Cc1c[nH]c2nccc(Oc3c(F)cc(Nc4cc(Cl)nc(N)n4)cc3F)c12")
"mid value"
>>> label_class("O=c1[nH]c2ccccc2n1C1CCN(Cc2ccc(-c3[nH]c4cc5ncnc5cc4nc3-c3ccccc3)cc2)CC1")
"small value"
>>> label_class("CCCSc1nc(N[C@@H]2C[C@H]2c2ccc(F)c(F)c2)c2nnn([C@@H]3C[C@H](OCCO)[C@@H](O)[C@H]3O)c2n1")
"large value"
>>> label_class("Cc1ccc(C)c(Oc2ccncc2C(=O)N2CCN(C3CC3)c3ccccc32)c1")
"mid value"
>>> label_class("CC(C)OC(=O)N1CCC(Oc2ncnc3c2cnn3-c2ccc(S(C)(=O)=O)cc2F)CC1")
"small value"
>>> label_class("CC(C)(C)NC[C@H](O)COc1nsnc1N1CCOCC1")
"small value"
>>> label_class("COc1cc2ncn(-c3cc(OCc4ccccc4C(F)(F)F)c(C(N)=O)s3)c2cc1OC [GW843682X]")
"large value"

----------
Test system: Fibroblast
Assay: Multiplex assay against human fibroblast
Type: toxicity, cell-based
Settings: 24 h, 10 µM, compound concentration 10 uM, replicate 1
Measured Quantity: Total Cell Count

>>> value_observed("Cc1nc(N2CC[C@H](O)C2)ncc1-c1cc(C(F)(F)F)cc2[nH]ncc12")
239
>>> value_observed("CC(C)Oc1ccccc1C(=O)Nc1ccccc1C(=O)Nc1cccc(S(=O)(=O)C(F)(F)F)c1")
127
>>> value_observed("O=c1cc(N2CCOCC2)oc2c(-c3cccc4c3sc3ccccc34)cccc12")
160
>>> value_observed("COc1ccc(-c2ccc3ncc4c(c3c2)n(-c2ccc(N3CCNCC3)c(C(F)(F)F)c2)c(=O)n4C)cn1.O=C(O)/C=C\\C(=O)O")
89
>>> value_observed("CCc1nn(CCCN2CCN(c3cccc(Cl)c3)CC2)c(=O)n1CCOc1ccccc1.Cl [NEFAZODONE HYDROCHLORIDE]")
177
>>> value_observed("Cc1cccc(CN2CCN(C(c3ccccc3)c3ccc(Cl)cc3)CC2)c1.Cl.Cl (centres undefined)")
132
>>> value_observed("CC1=C(C(=O)Nc2cc3cn[nH]c3cc2F)C(c2ccc(C(F)(F)F)cc2)CC(=O)N1 (centres undefined)")
125
>>> value_observed("CC(C)CC(=O)Nc1[nH]nc2c1CN(C(=O)C1CCN(C)CC1)C2(C)C")
284
>>> value_observed("Cc1ccc(C)c(Oc2ccncc2C(=O)N2CCN(C3CC3)c3ccccc32)c1")
189

----------
System: Fibroblast
Assay: Multiplex assay against human fibroblast
Assay type: toxicity, cell-based
Conditions: 12 h, 10 µM, compound concentration 10 uM, replicate 2
Measured Quantity: Population Apoptotic (%)

>>> value_observed("COc1cc(Nc2nccc(-c3cnn4nc(OC)ccc34)n2)cc(C(F)(F)F)c1")
33
>>> value_observed("CC(C)NC(=O)N1CC[C@H](NC2=Nc3cc(F)ccc3N(CC(F)F)c3ccc(Cl)cc32)C1")
0
>>> value_observed("Cc1nc(N2CC[C@H](O)C2)ncc1-c1cc(C(F)(F)F)cc2[nH]ncc12")
50
>>> value_observed("C=CC(=O)Nc1cccc(Oc2nc(Nc3ccc(N4CCN(C)CC4)cc3OC)ncc2Cl)c1")
20
>>> value_observed("Cc1ccc2c(c1)c1c(n2CCc2ccc(C)nc2)CCN(C)C1 [LATREPIRDINE]")
88
>>> value_observed("CNC(=O)Nc1ccc(-c2nc(N3CC4CCC(C3)O4)c3cnn(C4CCC5(CC4)OCCO5)c3n2)cc1")
25
>>> value_observed("CCc1nn(CCCN2CCN(c3cccc(Cl)c3)CC2)c(=O)n1CCOc1ccccc1.Cl [NEFAZODONE HYDROCHLORIDE]")
69
>>> value_observed("CC(C)Oc1ccccc1C(=O)Nc1ccccc1C(=O)Nc1cccc(S(=O)(=O)C(F)(F)F)c1")
90
>>> value_observed("Cl.O=C(O)c1cc(-c2ccc(C3CCNCC3)cc2)c2ccc(-c3ccc(C(F)(F)F)cc3)cc2c1")
60

----------
Test system: U2OS
Test: Multiplex assay against U2OS
Format: toxicity, cell-based
Conditions: human, 24 h, 10 µM, compound concentration 10 uM, replicate 2
Listed below: Population Healthy Nuclei (%) values for each entry.
Measured Quantity: Population Healthy Nuclei (%)

>>> value_observed("COc1ccc(-c2ccc3ncc4c(c3c2)n(-c2ccc(N3CCNCC3)c(C(F)(F)F)c2)c(=O)n4C)cn1.O=C(O)/C=C\\C(=O)O [BGT-226]")
10
>>> value_observed("COc1cc(Nc2nccc(-c3cnn4nc(OC)ccc34)n2)cc(C(F)(F)F)c1")
56
>>> value_observed("CC(C)CC(=O)Nc1[nH]nc2c1CN(C(=O)C1CCN(C)CC1)C2(C)C [PHA-793887]")
69
>>> value_observed("CC(C)NC(=O)N1CC[C@H](NC2=Nc3cc(F)ccc3N(CC(F)F)c3ccc(Cl)cc32)C1")
73
>>> value_observed("COc1ccccc1CN[C@H]1C2CCN(CC2)[C@H]1C(c1ccccc1)c1ccccc1 [CP-96345]")
81
>>> value_observed("CNC(=O)Nc1ccc(-c2nc(N3CC4CCC(C3)O4)c3cnn(C4CCC5(CC4)OCCO5)c3n2)cc1")
42
>>> value_observed("CN1CCN(Cc2ccc(Nc3ncc(Cl)c(Nc4ccccc4S(=O)(=O)N(C)C)n3)cc2)CC1 [DUBERMATINIB]")
33
>>> value_observed("C[C@]12CC[C@@H]3c4ccc(O)cc4CC[C@H]3[C@@H]1CC[C@@H]2O [ESTRADIOL]")
68
>>> value_observed("COC(=O)C1=C(C)NC(C)=C(C(=O)OCCCN2CCC(c3ccccc3)(c3ccccc3)CC2)[C@H]1c1cccc([N+](=O)[O-])c1 [NIGULDIPINE]")
25
>>> value_observed("CC(C)(C)NC[C@H](O)COc1nsnc1N1CCOCC1 [TIMOLOL]")
81
>>> value_observed("Cl.O=C(O)c1cc(-c2ccc(C3CCNCC3)cc2)c2ccc(-c3ccc(C(F)(F)F)cc3)cc2c1")
61
>>> value_observed("CC(C)OC(=O)N1CCC(Oc2ncnc3c2cnn3-c2ccc(S(C)(=O)=O)cc2F)CC1")
87
>>> value_observed("O=c1[nH]c2ccccc2n1C1CCN(Cc2ccc(-c3[nH]c4cc5ncnc5cc4nc3-c3ccccc3)cc2)CC1")
38
>>> value_observed("CC(C)c1noc(N2CCC(COc3ccc(-c4ccc(S(C)(=O)=O)cc4)nc3)CC2)n1 [GSK-1292263]")
79
>>> value_observed("CCC1=C[C@@H]2C[N@](C1)Cc1c([nH]c3ccccc13)[C@@](C(=O)OC)(c1cc3c(cc1OC)N(C)[C@H]1[C@@](O)(C(=O)OC)[C@H](OC(C)=O)[C@]4(CC)C=CCN5CC[C@]31[C@@H]54)C2.O=C(O)C(O)C(O)C(=O)O.O=C(O)C(O)C(O)C(=O)O [VINORELBINE TARTRATE]")
43
